# System: TRPC4 (transient receptor potential cation channel C4 beta), mouse
# experiment: positive allosteric modulators of mouse TRPC4, confirmation, cell-based, second round, Fluo-4, HEK293 TRPC4beta/mu-opioid, 1 µM (AID 2554)
# setup.conditions: DAMGO EC20, Fluo-4 calcium flux, at 1 µM
Active and inactive are the calls of the source.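 Rule for the calls: active = primary screen hit whose fluorescence ratio, in both repeats, exceeds the weak agonist control mean by 3 SD; inactive = the rest.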
Respond using exactly one of the listed classes: true (1) = active, false (0) = inactive

Consider the following illustrative entries.
compound	experimental.target	class.assignment
COc1ccc(/C=C/CN2CCCC(C(=O)c3ccc(OC)c(F)c3)C2)cc1 (stereo not drawn)	TRPC4 (transient receptor potential cation channel C4 beta), mouse	false (0)
CCOC(=O)C1(CCCc2ccccc2)CCN(Cc2cn(CC)nc2C)CC1	TRPC4 (transient receptor potential cation channel C4 beta), mouse	false (0)
Clc1ccc(COn2c(-c3ccc(Cl)cc3Cl)nc3ncccc32)cc1	TRPC4 (transient receptor potential cation channel C4 beta), mouse	false (0)
Cc1cc(NCc2ccccc2)nc2ccccc12	TRPC4 (transient receptor potential cation channel C4 beta), mouse	false (0)
CCCN(CCC)CCCNc1ccc2nnc(-c3ccc(F)cc3)n2n1	TRPC4 (transient receptor potential cation channel C4 beta), mouse	false (0)

I'd appreciate the recorded outcome for COc1cccc(CC2(CO)CCCN(Cc3ccccc3-c3ccco3)C2)c1 (stereo not drawn) from this test. false (0)

I'd appreciate the recorded outcome for CN(C)C(CNC(=O)/C=C/c1cccc(Cl)c1)c1ccccc1 (stereo not drawn) from this test. false (0)

I'd appreciate the recorded outcome for Cc1ccccc1C(=O)Nc1c(C(=O)N(CCN(C)C)Cc2ccco2)oc2ccccc12 from this test. false (0)

I'd appreciate the recorded outcome for Cc1ccc(C(=O)NNC(=S)NC(=O)c2ccc(Cl)cc2)cc1 from this test. false (0)

I'd appreciate the recorded outcome for Clc1ccc(OCCNCCc2ccccc2)cc1 from this test. false (0)

I'd appreciate the recorded outcome for CCOC(=O)C1=NN(C(=O)c2ccc(C)cc2)C(O)(c2ccc(Cl)cc2)C1 (stereo not drawn) from this test. false (0)

###

# experimental.target: Short transient receptor potential channel 4 (Mus musculus)
# experiment: inhibitors of mouse TRPC4 channel, confirmation, cell-based, second round, Fluo4, HEK293 TRPC4beta/mu-opioid, 1 µM (AID 2637)
# setup.conditions: Fluo4 calcium flux, DAMGO, at 1 µM
Active and inactive are the calls of the source.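 The calls were made as follows: active = calcium signal ratio cut to more than 3 SD under the fully stimulated control mean yet still positive, in both repeats and the primary screen; inactive = the rest.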
Respond using exactly one of the listed classes: yes = active, no = inactive

Consider the following illustrative entries.
molecule	experimental.target	class.assignment
Cc1cccc(C(=O)NNC(=S)NC(=O)c2cccs2)c1	Short transient receptor potential channel 4 (Mus musculus)	no
O=C(c1sc2ccccc2c1Cl)N(Cc1ccco1)C1CCS(=O)(=O)C1 (centres undefined)	Short transient receptor potential channel 4 (Mus musculus)	no
OCCN1CCN(Cc2cc(Br)cc(Br)c2O)CC1	Short transient receptor potential channel 4 (Mus musculus)	no

I'd appreciate the recorded outcome for CC(C)(C)c1ccccc1NC(=O)NC1CCN(Cc2c(F)cccc2Cl)CC1 from this test. no

###

# System: TRPC4 beta (transient receptor potential cation channel C4), mouse
# experiment: activators of mouse TRPC4 channel, confirmation, cell-based, Fluo4 calcium, HEK293 TRPC4beta/mu-opioid, duplicates, 10 µM (AID 2426)
# setup.conditions: Fluo4 calcium fluorescence, at 10 µM
Activity calls are given as the source filed them.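 Rule for the calls: active = fluorescence ratio normalized to control raised more than 50% in primary screen plus both repeat runs; inactive = the rest.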
Respond using exactly one of the listed classes: Yes (active), No (inactive)

Consider the following illustrative entries.
compound	class.assignment
O=C(NCCc1ccccn1)c1ccc(OC2CCN(CCc3ccccc3)CC2)cc1	Yes
CC(Oc1ccc(Cl)cc1)C(=O)NNC(=S)NC(=O)c1ccco1 (stereo unspecified)	Yes
COc1ccc(-c2nn(-c3ccccc3)cc2CNCc2cccnc2)c(F)c1	Yes
Cc1cc(-c2nn(-c3ccccc3F)cc2CNCCc2cnc[nH]2)c(C)s1	Yes
COc1ccc(C(CNCC(=O)Nc2ccccc2F)N(C)C)cc1 (stereo unspecified)	No
Cc1ccccc1OCC(=O)NNC(=S)NC(=O)c1ccco1	Yes

I'd appreciate the recorded outcome for Cc1ccccc1NC(=S)NCCc1ccccn1 from this test. Yes

I'd appreciate the recorded outcome for CCCN(CCC)CCNC(=S)Nc1ccc2nc3n(c(=O)c2c1)CCCCC3 from this test. No

I'd appreciate the recorded outcome for CCCN(CCC)CCCNC(=O)C1CCC(CNS(=O)(=O)c2cccc3nsnc23)CC1 (stereo unspecified) from this test. Yes

I'd appreciate the recorded outcome for Cc1ccn2cc(CCNC(=O)C3CC=CCC3C(=O)O)nc2c1 (stereo unspecified) from this test. Yes

I'd appreciate the recorded outcome for COc1ccc(C(CNC(=O)c2cc(SC)ccc2Cl)N(C)C)cc1 (stereo unspecified) from this test. Yes

Attribution: PubChem BioAssay
